Provide the recorded t1/2 (min) for the entries that follow.
Assay: In vitro stability in 50% v/v mouse plasma
Format: in vitro ADME
Settings: 50% v/v mouse plasma in PBS; 37°C; HPLC-UV 220 nm; one phase decay, least square fit; n = 3
Residues, ends and D or L forms follow the SMILES beside them.
# value in min; strip the unit string

Requested read-out: t1/2 (min). Entry: CCCCCCCCCCCC(=O)N[C@@H](CCC(N)=O)C(=O)N[C@@H](Cc1c[nH]cn1)C(=O)N[C@@H](CO)C(=O)N[C@@H](CCC(N)=O)C(=O)N[C@H](C(=O)N[C@H](C(=O)N[C@@H](CCCCN)C(=O)N[C@H](C(=O)O)C(C)C)[C@@H](C)O)[C@@H](C)CC [Mouse Lau-PTEN-PDZ] (HELM PEPTIDE1{[CCCCCCCCCCCC(=O)[*:2]].Q.H.S.Q.I.T.K.V}$$$$V2.0) 351.84

Field entry: CCCCCCCCCCCCCC(=O)N[C@@H](CCC(N)=O)C(=O)N[C@@H](Cc1c[nH]cn1)C(=O)N[C@@H](CO)C(=O)N[C@@H](CCC(N)=O)C(=O)N[C@H](C(=O)N[C@H](C(=O)N[C@@H](CCCCN)C(=O)N[C@H](C(=O)O)C(C)C)[C@@H](C)O)[C@@H](C)CC [Mouse Myr-PTEN-PDZ] (HELM PEPTIDE1{[CCCCCCCCCCCCCC(=O)[*:2]].Q.H.S.Q.I.T.K.V}$$$$V2.0) 52.16

Field entry: CCCCCCCCCCCC(=O)N[C@@H](CCC(N)=O)C(=O)N[C@@H](Cc1c[nH]cn1)C(=O)N[C@H](C(=O)N[C@@H](CCC(N)=O)C(=O)N[C@H](C(=O)N[C@H](C(=O)N[C@@H](CCCCN)C(=O)N[C@H](C(=O)O)C(C)C)[C@@H](C)O)[C@@H](C)CC)[C@@H](C)O [Human Lau-PTEN-PDZ] (HELM PEPTIDE1{[CCCCCCCCCCCC(=O)[*:2]].Q.H.T.Q.I.T.K.V}$$$$V2.0) 9.05

Field entry: CCCCCCCCCCCCCC(=O)N[C@@H](CCC(N)=O)C(=O)N[C@@H](Cc1c[nH]cn1)C(=O)N[C@H](C(=O)N[C@@H](CCC(N)=O)C(=O)N[C@H](C(=O)N[C@H](C(=O)N[C@@H](CCCCN)C(=O)N[C@H](C(=O)O)C(C)C)[C@@H](C)O)[C@@H](C)CC)[C@@H](C)O [Human Myr-PTEN-PDZ] (HELM PEPTIDE1{[CCCCCCCCCCCCCC(=O)[*:2]].Q.H.T.Q.I.T.K.V}$$$$V2.0) 6.74
